- Tested on: NCI/ADR-RES
- procedure_details: NCI tumour cell line growth inhibition, 48 h
Calls of active or inactive are those of the source. Rule as the data show it: active = GI50 up to about 1.1 µM and inactive = higher.
Could you please pick one outcome from this set? active, inactive

Sample answers from the record:
CCOC(=O)c1csc(NC(=O)CCN2CCCC2)n1 :: inactive
CC1(C)OCC(C2OC3OC(C)(C)OC3C2N)O1 (stereo not drawn) :: inactive

Please look at the following compound next.
Which outcome was entered for the compound CN(Cc1cnc2nc(N)nc(N)c2n1)c1ccc(C(=O)NC(CCC(=O)O)C(=O)O)cc1C(F)(F)F (stereo not drawn) in this test? active

====

Let's look at some compounds and their measured GI50.
- Test system: HOP-92
- procedure_details: NCI tumour cell line growth inhibition, 48 h
Calls of active or inactive are those of the source. Rule as the data show it: active = GI50 up to about 1.1 µM and inactive = higher.

The cases that follow already have their GI50 on record.
Cc1cccc2c(O)c3c(O)cc(O)cc3nc12 :: > 10 µM (inactive)
CCOP(=O)(OCC)C(N)c1ccc(Cl)cc1 (stereo not given) :: > 100 µM (inactive)
CSC(=NC1=NC(C(F)(F)F)(C(F)(F)F)N=C(c2ccccc2)O1)SC :: 7.8 µM (inactive)
CN(C)c1n2c3cc([N+](=O)[O-])ccc3[n+]3c(N(C)C)n4ccccc4c3c2c2cccc[n+]12.[O-][Cl+3]([O-])([O-])[O-].[O-][Cl+3]([O-])([O-])[O-] :: > 100 µM (inactive)
C(=C\c1ccccc1)/Cn1nc(-c2ccccc2)nc1-c1cnccn1 :: 35.9 µM (inactive)
O=C(Nc1ccc(Sc2ccc(/N=N/c3c(O)c(S(=O)(=O)O)cc4cc(S(=O)(=O)O)ccc34)cc2)cc1)c1ccc(/N=N/c2c(O)c(S(=O)(=O)O)cc3cc(S(=O)(=O)O)ccc23)cc1 :: 30.5 µM (inactive)

# input for lookup
Please report the recorded GI50 for "N=C(N)Nc1nc2cc(N)ccc2o1" . > 100 µM (inactive)
